These measurements were taken from patent US7893062B2.

Would you mind telling me the reported pKi of each entry?
molecular target: human NK3 (hNK3) receptor (Homo sapiens); test: Recombinant hNK3 receptor affinity, [3H]SR142801 displacement; conditions: recombinant hNK3 membranes, [3H]SR142801 0.3 nM
Sequence (P29371 whole entry): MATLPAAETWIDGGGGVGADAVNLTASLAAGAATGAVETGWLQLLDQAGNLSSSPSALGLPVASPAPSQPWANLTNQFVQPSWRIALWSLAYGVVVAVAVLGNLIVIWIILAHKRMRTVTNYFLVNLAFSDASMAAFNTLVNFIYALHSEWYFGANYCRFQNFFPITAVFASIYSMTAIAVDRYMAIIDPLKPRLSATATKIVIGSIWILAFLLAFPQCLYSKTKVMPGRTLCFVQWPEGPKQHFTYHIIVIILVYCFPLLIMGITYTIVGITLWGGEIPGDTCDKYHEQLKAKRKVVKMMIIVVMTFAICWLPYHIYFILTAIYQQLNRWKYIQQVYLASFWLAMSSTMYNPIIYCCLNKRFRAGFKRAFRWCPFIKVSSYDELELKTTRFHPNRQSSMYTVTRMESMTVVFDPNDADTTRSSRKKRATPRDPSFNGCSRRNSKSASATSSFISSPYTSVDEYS
The read-out pKi is expressed as -log10 of concentration in moles per litre.

Recorded result, CN(C(=O)C(C)(C)c1cc(C(F)(F)F)cc(C(F)(F)F)c1)[C@@H]1CN(C(=O)NCCO)C[C@H]1c1ccc(F)cc1 (racemic) , pKi: 6.67

Recorded result, Cc1cc(F)ccc1[C@@H]1CN(C(=O)N2CCN(S(C)(=O)=O)CC2)C[C@H]1N(C)C(=O)C(C)(C)c1cc(C(F)(F)F)cc(C(F)(F)F)c1 (racemic) , pKi: 6.86

Recorded result, CN(C(=O)C(C)(C)c1cc(Cl)cc(Cl)c1)[C@@H]1CN(C(=O)N2CCN(S(C)(=O)=O)CC2)C[C@H]1c1ccc(F)cc1 (racemic) , pKi: 7.03

Recorded result, Cc1cc(F)ccc1[C@@H]1CN(C(=O)N2CCOCC2)C[C@H]1N(C)C(=O)C(C)(C)c1cc(C(F)(F)F)cc(C(F)(F)F)c1 (racemic) , pKi: 6.56

Recorded result, CN(C(=O)C(C)(C)c1cc(C(F)(F)F)cc(C(F)(F)F)c1)[C@@H]1CN(C(=O)N2CCN(S(C)(=O)=O)CC2)C[C@H]1c1ccc(F)cc1 (racemic) , pKi: 6.81

Recorded result, CN(C(=O)C(C)(C)c1cc(C(F)(F)F)cc(C(F)(F)F)c1)[C@@H]1CN(C(=O)N2CCOCC2)C[C@H]1c1ccc(Cl)cc1 (racemic) , pKi: 6.34

Recorded result, CN(C(=O)C(C)(C)c1cc(Cl)cc(Cl)c1)[C@@H]1CN(C(=O)N2CCOCC2)C[C@H]1c1ccc(F)cc1 (racemic) , pKi: 6.70

Recorded result, CN(C(=O)C(C)(C)c1cc(C(F)(F)F)cc(C(F)(F)F)c1)[C@@H]1CN(C(=O)N(CCO)CCO)C[C@H]1c1ccc(F)cc1 (racemic) , pKi: 6.69

Recorded result, CN(C(=O)C(C)(C)c1cc(Cl)cc(Cl)c1)[C@@H]1CN(C(=O)N2CCN(S(C)(=O)=O)CC2)C[C@H]1c1ccc(Cl)cc1 (racemic) , pKi: 7.52

Recorded result, CN(C(=O)C(C)(C)c1cc(C(F)(F)F)cc(C(F)(F)F)c1)[C@@H]1CN(C(=O)N2CCN(S(C)(=O)=O)CC2)C[C@H]1c1ccccc1 (racemic) , pKi: 6.69

Recorded result, CC(=O)N1CCN(C(=O)N2C[C@@H](N(C)C(=O)C(C)(C)c3cc(C(F)(F)F)cc(C(F)(F)F)c3)[C@H](c3ccc(F)cc3)C2)CC1 (racemic) , pKi: 6.51
